# Tested on: SK-MEL-5 melanoma
# run_description: NCI-60 one-dose screen, 48 h
# measurement_parameters: 10 µM unless noted
This is part of a sample that, as a whole, favours compounds with a hit. Of some 83,000 tested, about 20% had one in any assay. Active and inactive are the calls of the source. Rule for the calls: active = growth percent below 10; inactive = the rest.
Allowed answers: 1 (active), 0 (inactive)

Take a look at these entries with their results.
structure_string: Cc1ccc(Cc2cnc(NC(=O)c3cc(C)oc3C)s2)cc1
class: 0

structure_string: N=c1ccccn1CCO
class: 0

structure_string: Cc1ccc(NC(=O)c2sc3nc(C)c(C(=O)c4ccccc4)cc3c2N)cc1
class: 0

structure_string: CS(=O)(=O)Nc1cc(-c2ccc3ncnc(Nc4ccc(F)c(Cl)c4)c3c2)cnc1Cl
class: 1

structure_string: Nc1ccc(-c2nc3ccc4[nH]ncc4c3c3c2CCCC3)cc1F
class: 1

In the following, a different compound is considered.
For "CN(C)C1CCN(C(=O)c2ccc(NC(=O)Nc3ccc(-c4nc(N5CCOCC5)c5cccn5n4)cc3)cc2)CC1" , what call appears in the results of this test? 1

Entry source: PubChem BioAssay (NCI)
